Here's what we have: AC50 numbers for Cytochrome P450 3A4 (Homo sapiens, UniProt P08684).
quantity: AC50

INSERT INTO assay_data (molecule, quantity, measured) VALUES
  ('COc1ccc(-n2c(=O)c(-c3ccc(F)cc3)nc3cnc(OC)nc32)cc1', 'AC50', '15.8 µM (inconclusive)'),
  ('NNC(=O)CNc1cccc(Br)c1', 'AC50', '2.51 µM (inconclusive)'),
  ('COc1ccc2[nH]cc(CCNc3nc(-c4ccccc4CN(C)C)nc4ccccc34)c2c1', 'AC50', '2 µM (inconclusive)'),
  ('O=C(Nc1ccccc1)N[C@H]1C[C@H](C(=O)O)Nc2cc(Cl)cc(Cl)c21', 'AC50', '25.1 µM (inconclusive)'),
  ('Cc1ccc(O)c(-c2cc(C(F)(F)C(F)F)nc(-c3ccccc3)n2)c1', 'AC50', '8.91 µM (inconclusive)'),
  ('[O-][n+]1c(CN2CCCCC2)nc2cccc3c2c1-c1ccccc1-3', 'AC50', '3.16 µM (inconclusive)'),
  ('COc1cc(N)c(Cl)cc1C(=O)NC1CCN(Cc2ccccc2)CC1 [CLEBOPRIDE]', 'AC50', '3.16 µM (inconclusive)'),
  ('COC(=O)C1(Cc2ccccc2)C=C2C(=C(C)C(=O)C2C)CN1 (centres undefined)', 'AC50', '15.8 µM (inconclusive)'),
  ('O=C(CCn1c(=S)[nH]c2ccccc2c1=O)NCCCN1CCOCC1', 'AC50', '7.08 µM (inconclusive)'),
  ('CN1CCN(CC(=O)N2c3ccccc3Sc3cc4ccccc4cc32)CC1', 'AC50', '3.98 µM (inconclusive)'),
  ('CC(C)NC(=O)N1CCCC2(CCN(C(=O)Oc3ccccc3)CC2)C1', 'AC50', '25.1 µM (inconclusive)'),
  ('CC(C)C(=O)N1CCN(c2ccccc2NC(=O)c2cccc(Cl)c2)CC1', 'AC50', '12.6 µM (inconclusive)'),
  ('O=C(NCCNc1ccc([N+](=O)[O-])cc1)c1ccccc1Br', 'AC50', '28.2 µM (inconclusive)'),
  ('CN1CCN(c2ncncc2-c2cccnc2)CC1', 'AC50', '12.6 µM (inconclusive)');
